Measurement Protocol: CEETOX_H295R_ESTRONE: CeeTox H295R High-throughput Steroidogenesis Assay for Estrone (AID 2283441);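 note: estrone secreted into medium measured by LC-MS/MS after dansyl derivatization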
Condition Notes: actives raise or lower the signal
Active and inactive are the calls of the source. Rule for the calls: active = hit-call score of the fitted dose curve at least 0.9, where 1 is the maximum; inactive = score below 0.9.
The categories you may choose from are t for active, f for inactive

Molecule	Assigned Class
O=C1C2CC=CCC2C(=O)N1SC(Cl)(Cl)Cl (configuration not stated)	f
CCOc1nc(C(Cl)(Cl)Cl)ns1	f
CCN(CC)c1nc(C)cc(OP(=S)(OC)OC)n1	t
CCSC(=O)N1CCCCCC1	f
Nc1cnn(-c2ccccc2)c(=O)c1Cl	f

*Q* Assay result, entry CCOC(=O)C(C)OC(=O)c1cc(Oc2ccc(C(F)(F)F)cc2Cl)ccc1[N+](=O)[O-] (configuration not stated) — outcome?
*A* f

*Q* Again, but for Cc1c(COC(=O)[C@@H]2[C@H](/C=C(\Cl)C(F)(F)F)C2(C)C)cccc1-c1ccccc1
*A* f

*Q* Again, but for O=C(Nc1ccccc1-c1ccc(Cl)cc1)c1cccnc1Cl
*A* f

*Q* Again, but for CN/C(=N\[N+](=O)[O-])NCc1cnc(Cl)s1
*A* f

*Q* Again, but for Cc1nc(N(C)C)nc(OC(=O)N(C)C)c1C
*A* f

*Q* Again, but for CCN(CC)C(=O)C(C)Oc1cccc2ccccc12 (configuration not stated)
*A* f

*Q* Again, but for CCCN(CC)CC1COC2(CCC(C(C)(C)C)CC2)O1 (configuration not stated)
*A* f

* * *

Read-out: CYP2E1 (gene 1571)
Measurement Protocol: LTEA_HepaRG_CYP2E1: Life Technologies and Expression Analysis (LTEA) Assay for CYP2E1 using HepaRG (AID 2283485)
Condition Notes: mRNA level, 48 h; actives raise or lower the signal
Active and inactive are the calls of the source. Rule for the calls: active = hit-call score of the fitted dose curve at least 0.9, where 1 is the maximum; inactive = score below 0.9.
The categories you may choose from are active, inactive

Solved entries (count: 4):
Molecule	Assigned Class
N#Cc1c[nH]cc1-c1cccc2c1OC(F)(F)O2	active
CCCN(CC)CC1COC2(CCC(C(C)(C)C)CC2)O1 (stereo not drawn)	inactive
CCN(CC)C(=O)C(C)Oc1cccc2ccccc12 (stereo not drawn)	active
COc1cc(Cl)c(OC)cc1Cl	inactive

Here is another molecule to look at.
*Q* Assay result, entry CCOP(=S)(OCC)Oc1nc(Cl)n(C(C)C)n1 — outcome?
*A* active

* * *

Read-out: Interleukin-8 (IL8), CXCL8 (gene 3576)
Measurement Protocol: BSK_3C_IL8: BioMAP Diversity Plus: 3C Assay for Interleukin-8 (IL8) Biomarker Activity (AID 2283020)
Condition Notes: primary human endothelial cells (HUVEC); actives raise or lower the signal
Active and inactive are the calls of the source. The calls were made as follows: active = hit-call score of the fitted dose curve at least 0.9, where 1 is the maximum; inactive = score below 0.9.
The categories you may choose from are T (active), F (inactive)

Solved entries (count: 5):
Compound	Assigned Class
CC1(C)C(C(=O)OC(C#N)c2cccc(Oc3ccccc3)c2)C1(C)C (centres undefined)	F
CCCC(=NOCC)C1=C(O)CC(CC(C)SCC)CC1=O (centres undefined)	F
COP(=S)(OC)Oc1ccc([N+](=O)[O-])c(C)c1	F
CCN(CC)c1nc(C)cc(OP(=S)(OC)OC)n1	F
CC(C)Oc1cccc(NC(=O)c2ccccc2C(F)(F)F)c1	F

*Q* Assay result, entry CCN(CC)C(=O)C(C)Oc1cccc2ccccc12 (centres undefined) — outcome?
*A* F

*Q* Again, but for Cc1nc(N(C)C)nc(OC(=O)N(C)C)c1C
*A* F

* * *

Tested Target: Transcriptional activator Myb (Homo sapiens)
Measurement Protocol: ATG_Myb_CIS: Attagene CIS-FACTORIAL HepG2 Assay for human Myeloblastosis (Myb) Proto-Oncogene Transcription Factor (AID 2282986)
Condition Notes: HepG2 Attagene CIS-FACTORIAL Myb reporter transcription; actives raise or lower the signal
Activity calls are given as the source filed them. Rule for the calls: active = hit-call score of the fitted dose curve at least 0.9, where 1 is the maximum; inactive = score below 0.9.
The categories you may choose from are Y = active, N = inactive

Compound	Assigned Class
Clc1cccc(C(Cl)(Cl)Cl)n1	N
CCCC(=NOCC)C1=C(O)CC(CC(C)SCC)CC1=O (stereo unspecified)	N
C=C(C)CN(CC)c1c([N+](=O)[O-])cc(C(F)(F)F)cc1[N+](=O)[O-]	N

*Q* Assay result, entry CCOP(=O)(OCC)Oc1nc(Cl)c(Cl)cc1Cl — outcome?
*A* N

*Q* Again, but for CO/N=C(/C1=NOCCO1)c1ccccc1Oc1ncnc(Oc2ccccc2Cl)c1F
*A* N

*Q* Again, but for COC(=O)NC(=S)Nc1ccccc1NC(=S)NC(=O)OC
*A* N

*Q* Again, but for COP(=O)(OC)O/C(C)=C/C(=O)N(C)C
*A* N

*Q* Again, but for COC(=O)NS(=O)(=O)c1ccc(N)cc1
*A* N

*Q* Again, but for O=P(O)(O)CCCl
*A* N

*Q* Again, but for N#Cc1c[nH]cc1-c1cccc2c1OC(F)(F)O2
*A* N

* * *

Tested Target: X-box-binding protein 1 (Homo sapiens) (UniProt P17861)
Sequence (P17861 whole entry, looked up): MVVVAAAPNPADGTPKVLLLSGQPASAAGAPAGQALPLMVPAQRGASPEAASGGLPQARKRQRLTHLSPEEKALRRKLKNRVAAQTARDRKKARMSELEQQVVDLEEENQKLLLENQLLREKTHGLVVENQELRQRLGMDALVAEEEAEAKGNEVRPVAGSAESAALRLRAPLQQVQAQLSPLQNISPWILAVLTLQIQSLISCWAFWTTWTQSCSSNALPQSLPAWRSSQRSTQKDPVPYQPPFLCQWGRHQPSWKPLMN
Measurement Protocol: ATG_Xbp1_CIS: Attagene CIS-FACTORIAL HepG2 Assay for human X-box Binding Protein 1 (XBP1) (AID 2282972)
Condition Notes: HepG2 XBP1 cis-element reporter, Attagene multiplex; actives raise or lower the signal
Calls of active or inactive are those of the source. How the source made its calls: active means hit-call score of the fitted dose curve at least 0.9, where 1 is the maximum; inactive means score below 0.9.
The categories you may choose from are active, inactive

Compound	Assigned Class
Nc1c(Cl)c(Cl)nc(C(=O)O)c1Cl	inactive

*Q* Assay result, entry CCCN(CC)CC1COC2(CCC(C(C)(C)C)CC2)O1 (stereo not drawn) — outcome?
*A* active

*Q* Again, but for COC(=O)NC(=S)Nc1ccccc1NC(=S)NC(=O)OC
*A* inactive

*Q* Again, but for CNC(=O)N(C)c1nnc(C(C)(C)C)s1
*A* inactive

*Q* Again, but for CCN(CC)c1nc(C)cc(OP(=S)(OC)OC)n1
*A* active

*Q* Again, but for CC(C)=CC1C(C(=O)OCc2coc(Cc3ccccc3)c2)C1(C)C (stereo not drawn)
*A* inactive

*Q* Again, but for CCOC(=O)C(C)OC(=O)c1cc(Oc2ccc(C(F)(F)F)cc2Cl)ccc1[N+](=O)[O-] (stereo not drawn)
*A* inactive

*Q* Again, but for Cn1c(-c2ccccc2)cc(-c2ccccc2)[n+]1C
*A* inactive

*Q* Again, but for CC(C)Oc1cccc(NC(=O)c2ccccc2C(F)(F)F)c1
*A* inactive

*Q* Again, but for Cc1cc(C)nc(Nc2ccccc2)n1
*A* inactive

* * *

Read-out: CD69, CD69 (gene 969)
Measurement Protocol: BSK_SAg_CD69: BioMAP Diversity Plus: SAg Assay for CD69 Biomarker Activity (AID 2283089);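 for AC50: cell surface CD69 protein quantified by ELISA with fluorescence detection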
Condition Notes: primary human HUVEC with PBMC; actives raise or lower the signal
Procedure: BSK_SAg is a cell-based, multiplexed-readout assay that uses umbilical vein endothelium and peripheral blood mononuclear cells, a human vascular primary cell co-culture, with measurements taken at 24 hours after chemical dosing in a 96-well plate.BSK_SAg_CD69 is one of 10 assay component(s) measured or calculated from the BSK_SAg assay. […] This assay endpoint, BSK_SAg_CD69, was analyzed with bidirectional fitting relative to DMSO as the negative control and baseline of activity. […]
Active and inactive are the calls of the source. The calls were made as follows: active = hit-call score of the fitted dose curve at least 0.9, where 1 is the maximum; inactive = score below 0.9.
Test Readout: AC50

Clc1nc(Cl)nc(Nc2ccccc2Cl)n1 inactive
COP(=O)(OC)O/C(C)=C/C(=O)N(C)C inactive
CC1(C)CON(Cc2ccccc2Cl)C1=O inactive
CN/C(=N\[N+](=O)[O-])NCc1cnc(Cl)s1 inactive
Cc1cc(C)nc(Nc2ccccc2)n1 inactive

Batch request: AC50 per item, same order as input.
1. COP(=S)(OC)Oc1ccc([N+](=O)[O-])c(C)c1
2. OC(c1ccc(Cl)cc1)(c1ccc(Cl)cc1)C(Cl)(Cl)Cl
3. CS(=O)(=O)c1ccc(C(=O)C2C(=O)CCCC2=O)c([N+](=O)[O-])c1
4. COc1cc(Cl)c(OC)cc1Cl
5. C=CCOC(=O)C(C)(C)OC(=O)c1cc(-n2c(=O)cc(C(F)(F)F)n(C)c2=O)ccc1Cl

*A*
["37 µM (active)", "30 µM (active)", "inactive", "inactive", "6.29 µM (active)"]

Batch request: AC50 per item, same order as input.
1. CC(C)N1C(=O)N(c2ccccc2)CSC1=NC(C)(C)C
2. CCOP(=O)(OCC)Oc1nc(Cl)c(Cl)cc1Cl

*A*
1: 30.3 µM (active); 2: 23.1 µM (active)

* * *

Read-out: Caspase-3 (Homo sapiens)
Measurement Protocol: LTEA_HepaRG_CASP3: Life Technologies and Expression Analysis (LTEA) Assay for cysteine-aspartic acid protease (CASP3) using HepaRG (AID 2283477)
Condition Notes: mRNA level, 48 h; actives raise or lower the signal
Active and inactive are the calls of the source. The calls were made as follows: active = hit-call score of the fitted dose curve at least 0.9, where 1 is the maximum; inactive = score below 0.9.
The categories you may choose from are active, inactive

Solved entries (count: 5):
Molecule	Assigned Class
COCC(=O)N(c1c(C)cccc1C)C(C)C(=O)OC (stereo unspecified)	inactive
CCNP(=S)(OC)O/C(C)=C/C(=O)OC(C)C (stereo unspecified)	inactive
C=CCOC(=O)C(C)(C)OC(=O)c1cc(-n2c(=O)cc(C(F)(F)F)n(C)c2=O)ccc1Cl	inactive
CC(C)NC(=O)N1CC(=O)N(c2cc(Cl)cc(Cl)c2)C1=O	inactive
CCOC(=O)C(C)OC(=O)c1cc(Oc2ccc(C(F)(F)F)cc2Cl)ccc1[N+](=O)[O-] (stereo unspecified)	inactive

*Q* Assay result, entry CC1(C)C(C(=O)OC(C#N)c2cccc(Oc3ccccc3)c2)C1(C)C (stereo unspecified) — outcome?
*A* inactive

*Q* Again, but for CCCC(=NOCC)C1=C(O)CC(CC(C)SCC)CC1=O (stereo unspecified)
*A* inactive

*Q* Again, but for OC(c1ccc(Cl)cc1)(c1ccc(Cl)cc1)C(Cl)(Cl)Cl
*A* active

*Q* Again, but for CCOc1nc(F)cc2nc(S(=O)(=O)Nc3c(Cl)cccc3Cl)nn12
*A* inactive

*Q* Again, but for CS(=O)(=O)c1ccc(C(=O)C2C(=O)CCCC2=O)c([N+](=O)[O-])c1
*A* inactive

*Q* Again, but for CN=C=S
*A* inactive
